Target: NsdUTPase K93A (Nocardia seriolae, UniProt A0ABF7PKI9, K93A)
Assay: Kd to K93A mutant of NsdUTPase
Can you tell me Kd for the items I'm about to list?
State the value, then name its unit.

C=CCn1c(/C=C/c2ccccc2)nc2cc(C(F)(F)F)ccc21: 50.7 µM

# ---- query compound ----
Kd in this record for C=CCn1c(-c2ccc(Oc3ccccc3)cc2)nc2cc(C)ccc21 [12b] : 40.9 µM
